Experimental Endpoint: logP

Here are 6 compounds together with their reported answers.
{"Smiles Input": "O=C(Nc1ccc2nn(C3CCCCC3)nc2c1)c1ccc([N+](=O)[O-])cc1", "logP": 4.57}
{"Smiles Input": "Cn1nc2ccc(NC(=O)c3ccccc3)cc2n1", "logP": 2.44}
{"Smiles Input": "O=C(Nc1ccc2nn(C3CCCCC3)nc2c1)c1ccccc1", "logP": 4.45}
{"Smiles Input": "Cn1nc2ccc(NC(=O)c3ccc([N+](=O)[O-])cc3)cc2n1", "logP": 2.53}
{"Smiles Input": "COc1cc(C(=O)Nc2ccc3nn(C4CCCCC4)nc3c2)cc(OC)c1OC", "logP": 4.45}
{"Smiles Input": "O=C(Nc1ccc2nn(C3CCCCC3)nc2c1)C(Cl)Cl", "logP": 3.87}

P: COc1ccc(C(=O)Nc2ccc3nn(C4CCCC4)nc3c2)cc1
Q: COc1cc(C(=O)Nc2ccc3nn(C)nc3c2)cc(OC)c1OC
R: Cn1nc2ccc(NC(=O)CCl)cc2n1
S: O=C(Nc1ccc2nn(C3CCCCC3)nc2c1)c1ccc(Cl)c(Cl)c1
stdin: Please put the entries in order of rising logP. Sort and list the labels as requested.
stdout: R, Q, P, S
(R: 1.22, Q: 2.38, P: 4.03, S: 5.85)
